Tested on: U2OS
protocol-summary: Multiplex assay against U2OS
Assay type: toxicity, cell-based
condition-set: human, 48 h, 10 µM, compound concentration 10 uM, replicate 2
attribute-measured: Population Pyknosed Nuclei (%)

{"compound": "Cc1cc2c(cc1N1C(=O)c3cccc4c(CCCO)ccc(c34)C1=O)n(C)c(=O)n2C", "attribute-measured": "Population Pyknosed Nuclei (%)", "result": "31%"}
{"compound": "COc1ccc(NS(=O)(=O)c2sc3ccc(Cl)cc3c2C)cc1N1CCNCC1.Cl", "attribute-measured": "Population Pyknosed Nuclei (%)", "result": "26%"}
{"compound": "Cl.Cl.Nc1ncnc2c1c(-c1cccc(OCc3ccccc3)c1)cn2[C@H]1C[C@@H](CN2CCC2)C1", "attribute-measured": "Population Pyknosed Nuclei (%)", "result": "40%"}
{"compound": "CCC(=O)O[C@]1(C(=O)SCF)[C@H](C)C[C@H]2[C@@H]3C[C@H](F)C4=CC(=O)C=C[C@]4(C)[C@@]3(F)[C@@H](O)C[C@@]21C [FLUTICASONE PROPIONATE]", "attribute-measured": "Population Pyknosed Nuclei (%)", "result": "11%"}

Source listed as ChEMBL document CHEMBL4689842.
